The reported numbers originate from paper PMC6060094.

biological target: PfCCT(528–795) Y626F/Q636A (Plasmodium falciparum, UniProt Q8IEE9, DEL720-737/Q636A/Y626F); test: Equilibrium ligand binding by isothermal titration calorimetry (ITC); settings: 20 °C, pH 7.5, single experiment, errors of model fit, read-out: Kd,CDP-Cho
Sequence (Q8IEE9 528-795, stated change not applied): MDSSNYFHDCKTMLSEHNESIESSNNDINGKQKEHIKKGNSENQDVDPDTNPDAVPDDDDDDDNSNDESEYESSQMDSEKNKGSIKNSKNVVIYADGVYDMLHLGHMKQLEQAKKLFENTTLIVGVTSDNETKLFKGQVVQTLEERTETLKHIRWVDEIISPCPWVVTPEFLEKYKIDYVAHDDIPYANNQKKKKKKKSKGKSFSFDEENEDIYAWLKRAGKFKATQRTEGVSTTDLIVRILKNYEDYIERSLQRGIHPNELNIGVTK
measured.attribute: Kd (µM)
Answers are plain numbers, in µM.

get_value(item= C[N+](C)(C)CCOP(=O)(O)OP(=O)([O-])OC[C@H]1O[C@@H](n2ccc(N)nc2=O)[C@H](O)[C@@H]1O , readout=Kd) returns 22.2

====

target: PfCCT(528–795) Y626F/Q636A (Plasmodium falciparum, UniProt Q8IEE9, DEL720-737/Q636A/Y626F); test: Equilibrium ligand binding by isothermal titration calorimetry (ITC); conditions: 20 °C, pH 7.5, single experiment, errors of model fit, read-out: Kd,CTP
measured.attribute: pKd
One number for each entry, as −log10 of the molar value.

get_value(item= Nc1ccn([C@@H]2O[C@H](COP(=O)(O)OP(=O)(O)OP(=O)(O)O)[C@@H](O)[C@H]2O)c(=O)n1 , readout=pKd) returns 4.22
